Values compiled from patent US10875837B2.

Tested on: pMAPK (Thr202/Tyr204) in MDA-MB453 or DMS 114 cells
protocol: Detection of pMAPK (Thr202/Tyr204) using Alpha ELISA (pERK alphaLISA)
Assay type: cell-based
experimental.context: 1 hr incubation with compound; cell line not given (MDA-MB453 or DMS 114)
Protocol: Detection of pMAPK (Thr202/Tyr204) Using Alpha ELISA MDA-MB453 or DMS 114 cells were plated in 96-well cell culture plates at a density of 1×10^5 cells or 3×10^4 cells, respectively. Cells were allowed to attach, and growth media was replaced with serum free media. Compounds were added at the indicated concentrations. Following 1 hr incubation in the presence of compound, cells were collected. For the DMS 114 cells, 100 ng/mL FGF2 was added for 10 min prior to cell collection. […]
Would you mind telling me the reported IC50 of each entry?

Tell me IC50 of C=CC(=O)N[C@H]1CCC[C@H]1Nc1ncc2cc(-c3c(Cl)c(OC)cc(OC)c3Cl)cc(F)c2n1 [Compound 45] when tested on pMAPK (Thr202/Tyr204) in MDA-MB453 or DMS 114 cells.
10 to 100 nM

Tell me IC50 of C=CC(=O)N[C@H]1CN(C(=O)CO)C[C@H]1Nc1ncc2cc(-c3c(Cl)c(OC)cc(OC)c3Cl)ccc2n1 [Compound 76] when tested on pMAPK (Thr202/Tyr204) in MDA-MB453 or DMS 114 cells.
10 to 100 nM

Tell me IC50 of C=CC(=O)N[C@H]1COC[C@H]1Nc1ncc2cc(-c3c(Cl)c(OC)cc(OC)c3Cl)cnc2n1 [Compound 29] when tested on pMAPK (Thr202/Tyr204) in MDA-MB453 or DMS 114 cells.
< 10 nM

Tell me IC50 of C=CC(=O)N[C@H]1COC[C@H]1Nc1ncc2cc(-c3c(Cl)c(OC)cc(OC)c3Cl)c(Cl)cc2n1 [Compound 55] when tested on pMAPK (Thr202/Tyr204) in MDA-MB453 or DMS 114 cells.
< 10 nM

Tell me IC50 of C=CC(=O)N[C@H]1COCC[C@H]1Nc1ncc2cc(-c3c(Cl)c(OC)cc(OC)c3Cl)ccc2n1 [Compound 41] when tested on pMAPK (Thr202/Tyr204) in MDA-MB453 or DMS 114 cells.
100 to 1000 nM

Tell me IC50 of C=CC(=O)N[C@H]1CN(C(=O)CN)C[C@H]1Nc1ncc2cc(-c3c(Cl)c(OC)cc(OC)c3Cl)ccc2n1 (racemic) [Compound 74] when tested on pMAPK (Thr202/Tyr204) in MDA-MB453 or DMS 114 cells.
100 to 1000 nM

Tell me IC50 of C=CC(=O)N[C@H]1CN(C(=O)OCC)C[C@H]1Nc1ncc2cc(-c3c(Cl)c(OC)cc(OC)c3Cl)ccc2n1 [Compound 84] when tested on pMAPK (Thr202/Tyr204) in MDA-MB453 or DMS 114 cells.
10 to 100 nM

Tell me IC50 of C=CC(=O)N[C@H]1CN(C(C)=O)C[C@H]1Nc1ncc2cc(-c3c(Cl)c(OC)cc(OC)c3Cl)ccc2n1 [Compound 56] when tested on pMAPK (Thr202/Tyr204) in MDA-MB453 or DMS 114 cells.
< 10 nM

Tell me IC50 of C=CC(=O)N[C@H]1CCOC[C@H]1Nc1ncc2cc(-c3c(Cl)c(OC)cc(OC)c3Cl)ccc2n1 [Compound 40] when tested on pMAPK (Thr202/Tyr204) in MDA-MB453 or DMS 114 cells.
< 10 nM

Tell me IC50 of C=CC(=O)N[C@H]1CN(C(=O)NCC)C[C@H]1Nc1ncc2cc(-c3c(Cl)c(OC)cc(OC)c3Cl)ccc2n1 [Compound 83] when tested on pMAPK (Thr202/Tyr204) in MDA-MB453 or DMS 114 cells.
< 10 nM

Tell me IC50 of C=CC(=O)N[C@H]1CN(C(=O)CN2CCCC2)C[C@H]1Nc1ncc2cc(-c3c(Cl)c(OC)cc(OC)c3Cl)ccc2n1 [Compound 91] when tested on pMAPK (Thr202/Tyr204) in MDA-MB453 or DMS 114 cells.
10 to 100 nM

Tell me IC50 of C=CC(=O)NC1CN(C(=O)CN(C)C)CC1Nc1ncc2cc(-c3c(Cl)c(OC)cc(OC)c3Cl)ccc2n1 (centres unmarked) [Compound 88] when tested on pMAPK (Thr202/Tyr204) in MDA-MB453 or DMS 114 cells.
10 to 100 nM

Tell me IC50 of C=CC(=O)N[C@H]1CCOC[C@H]1Nc1ncc2cc(-c3c(Cl)c(OC)cc(OC)c3Cl)cnc2n1 [Compound 44] when tested on pMAPK (Thr202/Tyr204) in MDA-MB453 or DMS 114 cells.
10 to 100 nM

Tell me IC50 of C=CC(=O)N[C@H]1CCCC[C@H]1Nc1ncc2cc(-c3c(Cl)c(OC)cc(OC)c3Cl)c(=O)n(CC)c2n1 [Compound 77] when tested on pMAPK (Thr202/Tyr204) in MDA-MB453 or DMS 114 cells.
10 to 100 nM
